test system: OVCAR-5 ovarian; test: NCI-60 one-dose screen, 48 h; conditions: 10 µM unless noted
The panel holds about 83,000 compounds, 20% with a hit somewhere; the sample as a whole holds those more often. Activity calls are given as the source filed them. Rule for the calls: active = growth percent below 10; inactive = the rest.
I would appreciate it if you answered using one of these outcomes: 1.0 (active), 0.0 (inactive)

As a guide, the following entries are already answered.
# Molecule, Group label
records = [
    ("O=C1/C(=C/c2ccccc2O)CC/C1=C\\c1ccccc1O", 0.0),
    ("N#Cc1ccc(O)c(C2=NCC(c3cccc(Oc4ccccc4)c3)O2)c1 (centres undefined)", 0.0),
    ("Nc1ncc(-c2ccc3ncnc(Nc4cccc(Cl)c4)c3c2)cn1", 0.0),
    ("O=C1c2c(c3c4ccccc4[nH]c3c3ccc4ccccc4c23)C(=O)N1CCN1CCNCC1", 0.0),
    ("CN1C(=O)/C(=C\\c2nc([P+](c3ccccc3)(c3ccccc3)c3ccccc3)c(N3CCOCC3)o2)SC1=S", 0.0),
]

Name the outcome recorded for CCOC(=O)C1=C(c2ccccc2)N=C2SC=C(c3ccc(Cl)cc3)N2C1c1ccc(Br)cc1 (centres undefined) in the assay. 0.0

Name the outcome recorded for COc1ccc(C2=C(Br)C(=O)c3nc(C)ccc3C2=O)cc1 in the assay. 0.0

Name the outcome recorded for C=C(C)[C@@H]1CC[C@]2(CO)CC[C@]3(C)[C@H](CC[C@@H]4[C@@]5(C)CC[C@H](NCO)C(C)(C)[C@@H]5CC[C@]43C)[C@@H]12 in the assay. 1.0

Name the outcome recorded for c1ccc(Cn2cc3c(c2)-c2oncc2CC3)cc1 in the assay. 0.0

Name the outcome recorded for Ic1ccc(OCCCCn2ccnc2)cc1 in the assay. 0.0

Name the outcome recorded for O=C1NC(=O)C(Cc2ccc(OCc3ccc(-c4ccc(Cl)cc4Cl)cc3)cc2)S1 (centres undefined) in the assay. 0.0

Name the outcome recorded for O=C(OC(CO)C(=O)NC12CC3CC(CC(C3)C1)C2)c1ccc(Cl)cc1 (centres undefined) in the assay. 0.0

Name the outcome recorded for C=CCOC(=O)Nc1cccn([C@H](Cc2ccccc2)C(=O)NCCC(C)C)c1=O in the assay. 0.0

Name the outcome recorded for CCCCNCCCCCNc1cc(OC)cc2cccnc12 in the assay. 0.0

Name the outcome recorded for O=C(CSc1oc(-c2ccccc2)nc1S(=O)(=O)c1ccccc1)Nc1ccc(F)cc1 in the assay. 0.0

Name the outcome recorded for C=CCc1c(O)c(C(=O)/C=C/c2ccccc2)c(OC)c2ccoc12 in the assay. 0.0

Name the outcome recorded for COc1cc2c(c(OC)c1OC)CCC(c1cccc(C(=O)Nc3cccc(Cl)c3)c1)O2 (centres undefined) in the assay. 0.0

Name the outcome recorded for COC(=O)c1c2c(c(C)[n+]([O-])c1C)C(=O)C(NCc1cccc(OC)c1)=CC2=O in the assay. 0.0

Name the outcome recorded for COc1cc2oc(-c3cccc(NC(=O)c4ccccc4)c3)cc(=O)c2c(OC)c1OC in the assay. 0.0

Name the outcome recorded for Cn1ccnc1C(=O)/C=C/c1ccc(C(=O)Nc2ccc(Cl)cc2)cc1 in the assay. 0.0

Name the outcome recorded for CN1CCN(c2cc(Nc3cc(C4CC4)[nH]n3)nc(Nc3ccc(CC(=O)NCc4cccc(F)c4)cc3)n2)CC1 in the assay. 0.0

Name the outcome recorded for CC(C)c1ccc(C(=O)Nc2sc3c(c2C(N)=O)CCC(=O)C3)cc1 in the assay. 1.0

* * *

Tested on: HCT-116 colon
Test: NCI-60 one-dose screen, 48 h (100 = growth as untreated, 0 = no growth, -100 = all killed)
Details: 10 µM unless noted
Procedure: Growth inhibition of the HCT-116 human tumor cell line is measured as a screen for anti-cancer activity. Cells are grown in 96 well plates and exposed to the test compound for 48 hours. Compounds are tested at a single concentration, which is 10^-5 M for most compounds. The reported endpoint is percent growth (GI% or GIPRCNT), where numbers from 0 - 100% represent growth inhibition, and numbers from -100% - 0 represent cell death. For example, a value of 40 represents 60% growth inhibition. […]
This is part of a sample that, as a whole, favours compounds with a hit. Of some 83,000 tested, about 20% had one in any assay.
Listing of recorded growth by entry.
Your answer is read as %, so omit the unit and give the number.

Consider the worked cases shown below.
# Compound, growth [%]
measured = [
    ("COC1=CC(c2ccc[nH]2)=N/C1=C\\c1[nH]c(C)c(C)c1CCC(=O)OCc1ccccc1", -76),
    ("CC(=O)N1N=C(c2ccc(C(F)(F)F)c(F)c2)CC1c1[nH]c(C)c(C(=O)NCC(F)(F)F)c1C (configuration not stated)", 34),
    ("Nc1nc(N)c(-c2ccc(Cl)c(Cl)c2)c(CBr)n1", 42),
]

# query: growth of entry CCOC(=O)NC(C)C 98.4

# query: growth of entry COc1cc2nc3cc([N+](=O)[O-])ccc3c(NCCNCC(C)O)c2cc1OC (configuration not stated) -18.8

* * *

system: NCI/ADR-RES ovarian; experiment: NCI-60 one-dose screen, 48 h; details: 10 µM unless noted
The panel holds about 83,000 compounds, 20% with a hit somewhere; the sample as a whole holds those more often. Activity calls are given as the source filed them. Rule for the calls: active = growth percent below 10; inactive = the rest.
I would appreciate it if you answered using one of these outcomes: 1 (active), 0 (inactive)

As a guide, the following entries are already answered.
# Molecule, Assayed system, Group label
measured = [
    ("Cc1[nH]c(C(=O)Nc2ccccc2OC2CCNCC2)c(Cl)c1Cl", "NCI/ADR-RES ovarian", 0),
    ("CN(C)CC1CCC(CN(C)C)C1=O (stereo unspecified)", "NCI/ADR-RES ovarian", 0),
]

Name the outcome recorded for C=C(C)[C@@H]1CC[C@]2(C(=O)N3CCOCC3)CC[C@]3(C)[C@H](CC[C@@H]4[C@@]5(C)C/C(=C/c6ccncc6)C(=O)C(C)(C)[C@@H]5CC[C@]43C)[C@@H]12 in the assay. 0

Name the outcome recorded for CC(=O)Oc1ccc(/C(=C(\C)c2ccc(Cl)cc2)c2ccc(OCCN3CCCCC3)cc2)cc1 in the assay. 0

Name the outcome recorded for O=C(CSc1nc2ccc([N+](=O)[O-])cc2[nH]1)Nc1ccc([N+](=O)[O-])cc1 in the assay. 0

Name the outcome recorded for COc1ccc(-c2cc(-c3cccnc3)nc3sc4c(=O)[nH]c(-c5ccc(Cl)cc5)nc4c23)cc1OC in the assay. 0

Name the outcome recorded for N#CC1=C(N)Oc2c(c(=O)[nH]c3ccc(Cl)cc23)C12C(=O)c1ccccc1C2=O in the assay. 0

* * *

system: OVCAR-3 ovarian; assay: NCI-60 one-dose screen, 48 h; conditions: 10 µM unless noted
The panel holds about 83,000 compounds, 20% with a hit somewhere; the sample as a whole holds those more often. The source made the active and inactive calls. How the source made its calls: active means growth percent below 10; inactive means the rest.
I would appreciate it if you answered using one of these outcomes: active, inactive

As a guide, the following entries are already answered.
# Compound, Group label
data = [
    ("COc1ccc(/C=C(\\C#N)n2nnc3cc(Cl)ccc32)cc1", "active"),
    ("CN(C)CCNC(=O)c1ccc(-c2nc3ccc4[nH]ncc4c3c3c2C2CCC3C2)cc1 (stereo not given)", "inactive"),
    ("Cc1cc(C)c2c(c1)N(C)c1ncnc(-n3cnc4cc(C)ccc43)c1CC2C (stereo not given)", "active"),
]

Name the outcome recorded for COC(=O)C1Cc2ccccc2CN1C(=O)c1ccc2c(c1)Cc1ccccc1-2 (stereo not given) in the assay. inactive

Name the outcome recorded for O=C(CSc1nc2ccc([N+](=O)[O-])cc2[nH]1)Nc1ccc([N+](=O)[O-])cc1 in the assay. inactive

* * *

system: TK-10 renal; assay: NCI-60 one-dose screen, 48 h; settings: 10 µM unless noted
Compounds without any hit were thinned out: in the full panel of roughly 83,000, 20% have a hit. Active and inactive are the calls of the source. Rule for the calls: active = growth percent below 10; inactive = the rest.
I would appreciate it if you answered using one of these outcomes: active, inactive

As a guide, the following entries are already answered.
# Compound, Group label
rows = [
    ("COCCOc1cc2ncnc(N3CCN(c4ncc(S(=O)(=O)N5CCCCC5)cn4)CC3)c2cc1OCCOC", "inactive"),
    ("Cn1cc(-c2ccc3nc(-c4ccc(CC(=O)ONc5cc(C(C)(C)C)on5)cc4)cnc3c2)cn1", "inactive"),
    ("COc1ccc(Cc2cnc(NC(=O)c3cc(C)oc3C)s2)cc1", "inactive"),
    ("CCN(CC)CCCCCNc1cc(OC(=O)c2ccc(Cl)cc2)cc2cccnc12", "inactive"),
    ("CCN(CC)c1ccc(\\C=N/N=C(N)/C(N)=N\\N=C/c2ccc(N(CC)CC)cc2)cc1", "inactive"),
]

Name the outcome recorded for CCCCn1c(=O)[nH]c(N)c([C@@H]2c3c([nH]c(=O)n(CCCC)c3=O)Oc3ccc4ccccc4c32)c1=O in the assay. inactive

Name the outcome recorded for C#CCOC(=O)/C=C/c1cn(-c2ccccc2)nc1-c1ccc(OC)cc1 in the assay. inactive

Name the outcome recorded for COc1ccc(C2=Nc3c(N)nc(N)nc3NC(c3cccc(Nc4ccnc5cc(C(F)(F)F)ccc45)c3)C2)cc1 (stereo not drawn) in the assay. inactive

Name the outcome recorded for Cc1ccc(CNc2ccc3nc(CCC4CCCCC4)[nH]c3c2)cc1 in the assay. inactive

Name the outcome recorded for CC(C)(Sc1cc(C(C)(C)C)c(O)c(C(C)(C)C)c1)Sc1cc(C(C)(C)C)c(OC(=O)CCCC(=O)O)c(C(C)(C)C)c1 in the assay. inactive

Name the outcome recorded for C=CC[Se]C(=O)Cc1c(C)n(C(=O)c2ccc(Cl)cc2)c2ccc(OC)cc12 in the assay. active

Name the outcome recorded for Cc1ccc(C2=Nc3c(N)ncnc3NC(c3cccc(Nc4ccnc5cc(C(F)(F)F)ccc45)c3)C2)cc1 (stereo not drawn) in the assay. inactive

Name the outcome recorded for Nc1cnc(C(=O)NNc2nc3cc(F)ccc3n3cccc23)cn1 in the assay. inactive

Name the outcome recorded for O=C1C(=O)N(Cc2ccc(-c3ccccc3)cc2)c2ccc(OC(F)(F)F)cc21 in the assay. inactive

Name the outcome recorded for CCCCCOC(=O)c1c(C)[nH]c(/C=C2\N=C(c3ccc[nH]3)C=C2OC)c1C in the assay. active

Name the outcome recorded for Cc1ccc(C[P+](c2ccccc2)(c2ccccc2)c2ccccc2)cc1 in the assay. inactive

Name the outcome recorded for CSc1nnc(-c2cc3c([nH]c4ccccc43)c(-c3cccc(O)c3)n2)n1-c1ccccc1 in the assay. inactive

Name the outcome recorded for CC(=O)/C(=C\c1c(-c2ccccc2)[nH]c2ccccc12)S(C)(=O)=O in the assay. inactive

Name the outcome recorded for COC(=O)[C@@H](CCCCNC(=O)[C@]12CCC(C)(C)C[C@@H]1C1=CC[C@@H]3[C@@]4(C)C/C(=C/c5ccco5)C(=O)C(C)(C)[C@@H]4CC[C@@]3(C)[C@]1(C)CC2)NC(=O)[C@]12CCC(C)(C)C[C@@H]1C1=CC[C@@H]3[C@@]4(C)C/C(=C/c5ccco5)C(=O)C(C)(C)[C@@H]4CC[C@@]3(C)[C@]1(C)CC2 in the assay. inactive

Name the outcome recorded for O=C(c1ccncc1)N1N=C(c2ccc(Cl)cc2)C[C@H]1c1cn(-c2ccccc2)nc1-c1ccccc1 in the assay. inactive

Name the outcome recorded for O=C(O)CCCN1C(=O)/C(=C/c2cn(-c3ccccc3)nc2-c2ccc([N+](=O)[O-])cc2)SC1=S in the assay. inactive

Name the outcome recorded for CC(C)COc1nc2c(c(=O)n(C)c(=O)n2C)n1C in the assay. inactive

Name the outcome recorded for CCOC(=O)C1=C(N)Oc2c(sc3c(F)cccc23)C1c1ccc(O)cc1 (stereo not drawn) in the assay. inactive

Name the outcome recorded for CCOC(=O)c1c(C(=O)c2cn(C)c3ccc(Br)cc23)c(-c2cn(C)c3ccc(Br)cc23)n(NC(=O)OC(C)(C)C)c1C in the assay. inactive

Name the outcome recorded for c1ccc(Cn2cc3c(c2)-c2oncc2CC3)cc1 in the assay. inactive

Name the outcome recorded for Cn1cc(C(=O)c2nc(-c3c[nH]c4ccccc34)no2)c2cc(F)ccc21 in the assay. inactive

Name the outcome recorded for COc1cc(OC)c(/C=C/C(=O)c2c(OC)cccc2OC)c(OC)c1 in the assay. inactive

Name the outcome recorded for CCN1C(=S)N(c2ccccc2)C2NC(=S)N(/N=C/C=C/c3ccccc3OC)C21 (stereo not drawn) in the assay. inactive

Name the outcome recorded for O=C(Nc1nc2ccccc2s1)c1ccc(F)cc1 in the assay. inactive

Just for reference, PubChem BioAssay (NCI) is where these values come from.
